Hello, the source for this data is patent US20260242735A1, in case you need it.

Target: human CD33 V25M (human, UniProt P20138 18-364)
Sequence (P20138 18-364 V25M limits assumed): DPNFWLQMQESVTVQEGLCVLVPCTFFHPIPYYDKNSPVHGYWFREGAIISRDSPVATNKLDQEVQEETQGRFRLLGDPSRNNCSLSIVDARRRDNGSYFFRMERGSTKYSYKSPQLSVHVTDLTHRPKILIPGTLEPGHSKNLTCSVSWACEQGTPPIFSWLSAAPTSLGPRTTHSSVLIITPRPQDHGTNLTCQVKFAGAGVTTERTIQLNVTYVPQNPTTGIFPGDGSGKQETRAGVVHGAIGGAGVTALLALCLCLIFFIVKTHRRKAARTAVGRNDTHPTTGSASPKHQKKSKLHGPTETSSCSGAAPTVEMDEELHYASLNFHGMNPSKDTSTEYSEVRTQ
Experiment: flow cytometry, mutant on cells, IgG
Recorded endpoint: Mean % WT Binding (% WT binding)

[[record]]
binder = "Refmab #3 (antibody, human IgG1, V domains shown, Tested in IgG format; human IgG1 Fc silent (PG-LALA)) VH: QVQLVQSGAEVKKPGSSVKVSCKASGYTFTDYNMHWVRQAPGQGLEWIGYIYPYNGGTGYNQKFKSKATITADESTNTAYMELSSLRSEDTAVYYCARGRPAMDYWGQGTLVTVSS VL: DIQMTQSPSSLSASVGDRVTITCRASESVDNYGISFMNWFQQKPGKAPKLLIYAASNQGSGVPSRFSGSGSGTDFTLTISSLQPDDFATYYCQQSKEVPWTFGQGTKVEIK"
recorded_endpoint = "Mean % WT Binding"
measurement = 90.4

[[record]]
binder = "Refmab #4 (antibody, human IgG1, V domains shown, Tested in IgG format; human IgG1 Fc silent (PG-LALA)) VH: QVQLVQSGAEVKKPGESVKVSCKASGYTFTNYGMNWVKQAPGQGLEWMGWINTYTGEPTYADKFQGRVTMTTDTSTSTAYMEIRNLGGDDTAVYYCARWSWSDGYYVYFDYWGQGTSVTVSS VL: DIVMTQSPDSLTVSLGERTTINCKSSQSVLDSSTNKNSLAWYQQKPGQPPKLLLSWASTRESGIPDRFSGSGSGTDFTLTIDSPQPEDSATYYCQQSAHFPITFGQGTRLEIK"
recorded_endpoint = "Mean % WT Binding"
measurement = 81.1

[[record]]
binder = "Refmab #1 (antibody, human IgG1, V domains shown, Tested in IgG format; human IgG1 (Absolute Antibody hP67.6, Cat. No. Ab00283-10.0); also called hP67.6) VH: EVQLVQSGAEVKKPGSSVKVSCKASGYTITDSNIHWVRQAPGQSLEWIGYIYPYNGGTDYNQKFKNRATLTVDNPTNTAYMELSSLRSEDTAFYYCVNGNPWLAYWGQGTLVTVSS VL: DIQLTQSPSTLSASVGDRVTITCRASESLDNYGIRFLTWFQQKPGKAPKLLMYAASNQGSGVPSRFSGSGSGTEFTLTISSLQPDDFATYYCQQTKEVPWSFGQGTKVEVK"
recorded_endpoint = "Mean % WT Binding"
measurement = 97.3

[[record]]
binder = "Refmab #2 (antibody, human IgG1, V domains shown, Tested in IgG format; human IgG1 Fc silent (PG-LALA)) VH: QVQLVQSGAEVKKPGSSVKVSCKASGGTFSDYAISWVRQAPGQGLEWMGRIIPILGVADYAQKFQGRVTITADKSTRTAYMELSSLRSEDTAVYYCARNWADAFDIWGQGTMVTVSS VL: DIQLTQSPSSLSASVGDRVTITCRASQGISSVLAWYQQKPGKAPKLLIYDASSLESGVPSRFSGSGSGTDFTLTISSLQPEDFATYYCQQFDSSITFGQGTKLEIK"
recorded_endpoint = "Mean % WT Binding"
measurement = 83

